// provenance: patent US20110319362A1

- System: MDA-MB-468 cancer cell line
- testMethodNotes: Cell growth assay (WST-8)
- Assay type: cell-based
- experimentalSetup: Homo sapiens, MDA-MB-468, 96 h; WST-8, 4 days; read-out: Inhibition of cell growth IC50, MDA-MB-468 cancer cell line
pIC50: −log10 of the molar value.
measurementLabel: pIC50

• CCOC(=O)COc1ccc(C[C@H](NC(C)=O)C(=O)N[C@H]2CCCCC3CC[C@@H](C(=O)N[C@@H](CCC(N)=O)C(=O)NCc4ccccc4)N3C2=O)cc1 (some centres unmarked) = < 4.00
• NCCC[C@H](NC(=O)[C@@H]1CC[C@@H]2CCCC[C@H](NC(=O)[C@H](Cc3ccc(OP(=O)(O)O)cc3)NC(=O)OCc3ccccc3)C(=O)N21)C(=O)NCc1ccccc1 [Example 20] = < 4.00
• CN(C)[C@@H](Cc1ccc(OP(=O)(O)O)cc1)C(=O)N[C@H]1CCCCC2CC[C@@H](C(=O)N[C@@H](CCC(N)=O)C(=O)NCc3ccccc3)N2C1=O (stereo in doubt) [Example 36] = < 4.00
• CCCCCCCCCCCCCCCC(=O)N[C@@H](Cc1ccc(OP(=O)(O)O)cc1)C(=O)NC1CCCC[C@H]2CC[C@@H](C(=O)N[C@@H](CCC(N)=O)C(=O)NCc3ccccc3)N2C1=O (some centres unmarked) [Example 37] = > 4.30
• O=C(CCc1ccccc1)N[C@@H](Cc1ccc(OP(=O)(O)O)cc1)C(=O)N[C@H]1CCCCC2CC[C@@H](C(=O)N[C@@H](CCC(=O)NC(c3ccccc3)(c3ccccc3)c3ccccc3)C(=O)NCc3ccccc3)N2C1=O (some centres unmarked) = < 4.30

###

Entries and their measured IC50 follow.
- targetOfAssay: STAT3 protein (Homo sapiens, UniProt P40763)
- Construct: human STAT3 protein (residues 122-722) fused to His-tag; His-tag
- Sequence (P40763 122-722): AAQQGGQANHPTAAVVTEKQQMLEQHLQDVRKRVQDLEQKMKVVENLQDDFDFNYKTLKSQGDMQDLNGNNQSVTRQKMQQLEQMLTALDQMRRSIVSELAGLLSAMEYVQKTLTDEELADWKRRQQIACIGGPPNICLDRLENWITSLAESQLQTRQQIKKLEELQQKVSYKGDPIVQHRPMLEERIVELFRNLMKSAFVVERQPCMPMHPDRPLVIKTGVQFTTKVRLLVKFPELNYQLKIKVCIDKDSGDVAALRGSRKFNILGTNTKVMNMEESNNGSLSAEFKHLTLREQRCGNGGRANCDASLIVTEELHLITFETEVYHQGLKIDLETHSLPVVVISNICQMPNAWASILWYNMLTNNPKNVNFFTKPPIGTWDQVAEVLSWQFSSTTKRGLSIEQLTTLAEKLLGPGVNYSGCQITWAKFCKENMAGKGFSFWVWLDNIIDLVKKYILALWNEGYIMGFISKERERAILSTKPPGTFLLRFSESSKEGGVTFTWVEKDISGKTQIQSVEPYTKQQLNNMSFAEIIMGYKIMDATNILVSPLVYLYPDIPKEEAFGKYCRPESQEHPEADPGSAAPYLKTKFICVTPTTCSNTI
- testMethodNotes: In vitro competitive STAT3 binding assay (fluorescence polarization)
- experimentalSetup: FP competitive binding, fluorescently tagged STT2 peptide tracer; read-out: Binding affinities to STAT3 IC50
measurementLabel: IC50

• CN(C)[C@@H](Cc1ccc(OP(=O)(O)O)cc1)C(=O)N[C@H]1CCCCC2CC[C@@H](C(=O)N[C@@H](CCC(N)=O)C(=O)NCc3ccccc3)N2C1=O (stereo in doubt) = < 5 µM
• CN[C@H](Cc1ccc(OCP(=O)(O)O)cc1)C(=O)N[C@H]1CCCCC2CC[C@@H](C(=O)N[C@@H](Cc3c[nH]cn3)C(=O)NCc3ccccc3)N2C1=O (some centres unmarked) = < 100 µM
• CCOP(=O)(O)CCCCCC(=O)N[C@H]1CCCC[C@H]2CC[C@@H](C(=O)N[C@@H](CCC(N)=O)C(=O)NCc3ccccc3)N2C1=O = > 100 µM
• CN(C)[C@@H](Cc1ccc(OCP(=O)(O)O)cc1)C(=O)NC1CCCC[C@H]2CC[C@@H](C(=O)N[C@@H](Cc3c[nH]cn3)C(=O)NCCc3ccccc3)N2C1=O (stereo in doubt) = < 30 µM
• CCOC(=O)C(Oc1ccc(C[C@@H](C(=O)N[C@H]2CCCCC3CC[C@@H](C(=O)N[C@@H](Cc4c[nH]cn4)C(=O)NCc4ccccc4)N3C2=O)N(C)C)cc1)C(=O)OCC (some centres unmarked) = > 10 µM

###

- Tested on: MDA-MB-468 cancer cell line
- testMethodNotes: Cell growth assay (WST-8)
- Format: cell-based
- experimentalSetup: Homo sapiens, MDA-MB-468, 96 h; WST-8, 4 days; read-out: Inhibition of cell growth IC50, MDA-MB-468 cancer cell line
pIC50: −log10 of the molar value.
measurementLabel: pIC50

• CCCCCCCCCCCCCCCCN1CCN(CCC(=O)N[C@@H](Cc2ccc(OP(=O)(O)O)cc2)C(=O)N[C@H]2CCCCC3CC[C@@H](C(=O)N[C@@H](Cc4c[nH]cn4)C(=O)NCc4ccccc4)N3C2=O)CC1 (some centres unmarked) = > 4.52
• CNC(=O)[C@H](CCC(N)=O)NC(=O)[C@@H]1CC[C@@H]2CCCC[C@H](NC(=O)[C@H](Cc3ccc(OP(=O)(O)O)cc3)NC(=O)OCc3ccccc3)C(=O)N21 = < 4.00
• O=C(CC[C@H](NC(=O)[C@@H]1CCC2CCCC[C@H](NC(=O)[C@H](Cc3ccc(OP(=O)(O)O)cc3)NC(=O)OCc3ccccc3)C(=O)N21)C(=O)NCc1ccccc1)NC(c1ccccc1)(c1ccccc1)c1ccccc1 (some centres unmarked) = > 4.30
• CN(C)[C@@H](Cc1ccc(OC(C(=O)O)C(=O)O)cc1)C(=O)N[C@H]1CCCCC2CC[C@@H](C(=O)N[C@@H](Cc3c[nH]cn3)C(=O)NCc3ccccc3)N2C1=O (some centres unmarked) = < 4.00
• CN(C)CCCCNC(=O)[C@@H]1CCC2CCCC[C@H](NC(=O)[C@H](Cc3ccc(OP(=O)(O)O)cc3)NC(=O)OCc3ccccc3)C(=O)N21 (some centres unmarked) = < 4.00
• NC(=O)CC[C@H](NC(=O)[C@@H]1CCC2CCCC[C@H](NC(=O)c3cc4cc(C(F)(F)P(=O)(O)O)ccc4[nH]3)C(=O)N21)C(=O)NCc1ccccc1 (some centres unmarked) = < 4.00
• CC[C@H](NC(=O)[C@@H]1CCC2CCCC[C@H](NC(=O)[C@H](Cc3ccc(OP(=O)(O)O)cc3)NC(=O)OCc3ccccc3)C(=O)N21)C(=O)NCc1ccccc1 (some centres unmarked) = < 4.52
• CC(=O)N1CCC2CC[C@@H](C(=O)N[C@@H](CCC(N)=O)C(=O)NCc3ccccc3)N2C(=O)[C@@H](NC(=O)[C@@H](N)Cc2ccc(OP(=O)(O)O)cc2)C1 (some centres unmarked) = < 4.00
• CCOC(=O)C(Oc1ccc(C[C@H](NC(C)=O)C(=O)N[C@H]2CCCCC3CC[C@@H](C(=O)N[C@@H](CCC(N)=O)C(=O)NCc4ccccc4)N3C2=O)cc1)C(=O)OCC (some centres unmarked) = < 4.00
• CC(C)(C)OC(=O)CCc1ccc(CCC(=O)N[C@H]2CCCC[C@H]3CC[C@@H](C(=O)NCC[C@H](O)CO)N3C2=O)cc1 = < 4.00
• NC(=O)CCC(NC(=O)[C@@H]1CCC2CCCC[C@H](NC(=O)c3cc4cc(C(F)(F)P(=O)(O)O)ccc4o3)C(=O)N21)C(=O)NCc1ccccc1 (some centres unmarked) = < 4.00

###

- System: MDA-MB-468 cancer cell line
- testMethodNotes: Cell growth assay (WST-8)
- Type: cell-based
- experimentalSetup: Homo sapiens, MDA-MB-468, 96 h; Table 2 prints no column heads; columns and unit as in Table 1; WST-8, 4 days; read-out: Inhibition of cell growth IC50, MDA-MB-468 cancer cell line (pro-drugs, Table 2)
Entries and their measured IC50 follow.
measurementLabel: IC50

* CCCCCCCCCCCCCCCCNC(=O)C(CCC(N)=O)NC(=O)[C@@H]1CCC2CCCC[C@H](NC(=O)c3cc4cc(C(F)(F)P(=O)(OCOC(=O)C(C)(C)C)OCOC(=O)C(C)(C)C)ccc4[nH]3)C(=O)N21 (some centres unmarked) | > 100 µM
* CC(C)(C)C(=O)OCOP(=O)(OCOC(=O)C(C)(C)C)C(F)(F)c1ccc2[nH]c(C(=O)N[C@H]3CCCCC4CC[C@@H](C(=O)NC(CCC(N)=O)C(=O)NCc5ccccc5)N4C3=O)cc2c1 (some centres unmarked) | > 100 µM
* CCCCCCCCCCCCCCCCOP(=O)(O)C(F)(F)c1ccc2cc(C(=O)N[C@H]3CCCC[C@H]4CC[C@@H](C(=O)NC(CCC(N)=O)C(=O)NCc5ccccc5)N4C3=O)[nH]c2c1 (some centres unmarked) | > 50 µM
* CC(C)(C)C(=O)OCOP(=O)(O)COc1ccc(C[C@H](NC(=O)OCc2ccccc2)C(=O)N[C@H]2CCCCC3CC[C@@H](C(=O)N[C@@H](CCC(N)=O)C(=O)NCc4ccccc4)N3C2=O)cc1 (some centres unmarked) | > 50 µM
* CCOP(=O)(OCC)C(F)(F)c1ccc2c(c1)cc(C(=O)N[C@H]1CCCCC3CC[C@@H](C(=O)NC(CCC(N)=O)C(=O)NCc4ccccc4)N3C1=O)n2C (some centres unmarked) | > 100 µM

###

- targetOfAssay: STAT3 protein (Homo sapiens, UniProt P40763)
- Construct: human STAT3 protein (residues 122-722) fused to His-tag; His-tag
- testMethodNotes: In vitro competitive STAT3 binding assay (fluorescence polarization)
- experimentalSetup: FP competitive binding, fluorescently tagged STT2 peptide tracer; read-out: Binding affinities to STAT3 IC50
pIC50: −log10 of the molar value.
measurementLabel: pIC50

• CCCCCCCCCCCCCCCCNC(=O)[C@H](CCC(N)=O)NC(=O)[C@@H]1CCC2CCCC[C@H](NC(=O)[C@@H](N)Cc3ccc(OP(=O)(O)O)cc3)C(=O)N21 (stereo partly drawn) = < 5.30
• CC(C)(C)OC(=O)CCc1ccc(CCC(=O)N[C@H]2CCCC[C@H]3CC[C@@H](C(=O)NCC[C@H](O)CO)N3C2=O)cc1 = < 4.00
• CCCCCCCCN(CCCCCCCC)[C@@H](Cc1ccc(OP(=O)(O)O)cc1)C(=O)N[C@H]1CCCCC2CC[C@@H](C(=O)N[C@@H](CCC(N)=O)C(=O)NCc3ccccc3)N2C1=O (stereo partly drawn) = > 4.00
